The reported numbers originate from patent US7022343B2.

Assay: Tissue analysis of drug content under FOCALSEAL-S gels on porcine heart
Assay type: in vivo
Settings: lung tissue adjacent to gel-treated sites; pig, seven days
Structures can show the parent of a compound that is named as a salt.
property: concentration at 7 days

Quick check: concentration at 7 days of CCCCc1oc2ccccc2c1C(=O)c1cc(I)c(OCCN(CC)CC)c(I)c1 [amiodarone, Amiodarone hydrochloride] ? ≤ 17000 ng/g
